Please find below pIC50 measurements for Serine/threonine-protein kinase pim-1 (Homo sapiens), combined from several publications.
pIC50: −log10 of the molar value.
readout: pIC50

# example entries with known answers
- compound: "O=C(O)c1ccc2ccc(/C=C/c3cc(Br)c(O)c(Br)c3)nc2c1O"
  test value: 5.68
- compound: "Nc1cc2[nH]ncc2c2c1[nH]c1ccc(Cl)cc12"
  test value: 5.96

A: Cc1c(O)c(O)c2c(c1C=O)[C@@H]1O[C@H](O2)c2c(C)c(O)c(O)c(O)c2C1=O (racemic)
B: c1ccc(-c2ccc3c(-c4ccc(N5CCNCC5)cc4)n[nH]c3n2)cc1
C: CN(C)CCCOc1cncc(-c2ccc3[nH]cc(-c4ccc(C(F)(F)F)cc4)c3c2)n1
Task: Rank the items in ascending order with respect to pIC50. Answer by listing the labels in the order asked for.
Output: A, B, C

====

Field pIC50: reported value for Serine/threonine-protein kinase pim-1 (Homo sapiens); entries drawn from several documents.
pIC50: −log10 of the molar value.
readout: pIC50

Solved entries:
- compound: "Nc1cc2cn[nH]c2c2cc[nH]c12"
  test value: 6.34
- compound: "CCN1CCCC1CNc1ccn2ncc(-c3ccc4ccccc4c3)c2n1 (configuration not stated)"
  test value: 8.80
- compound: "O=c1[nH]c([C@@H]2C[C@@H](F)CN2)nc2c1oc1ccc(Br)cc12"
  test value: 7.34

a: CN1CCC[C@H]1c1nc2c(oc3ccc(Br)cc32)c(=O)[nH]1
b: CO[C@H]1CCN(Cc2nc3c(oc4ccc(Br)cc43)c(=O)[nH]2)C1
Task: Kindly identify which of a and b has the larger recorded pIC50 value. Write down the label attached to your selection.
Output: a
(a: 7.96, b: 7.11)

====

// molecules with reported IC50 on Serine/threonine-protein kinase pim-1 (Homo sapiens), multi-publication
readout: IC50 (nM)

- molecule: "O=C(O)c1cc2cc(Br)cc(NCCC3CCNCC3)c2o1"
  readout: "IC50"
  unit abbreviation: "nM"
  test value: 40

a: O=C(O)c1cc2cc(-c3cncc(NCC4CCNCC4)n3)ccc2o1
b: O=C(O)c1ccc2ccc(CCc3ccc(O)c(O)c3)nc2c1O
c: NC(=O)c1cc(Cl)c2c(Cl)c(C#CC3CCCO3)n([C@H]3CCCNC3)c2n1 (stereo in doubt; 20b)
d: O=C(O)c1cc2cc(-c3cncc(NC4CCNCC4)n3)ccc2o1
Task: Number of molecules to sort: 4. Sort criterion: IC50, ascending. In plain terms: list the labels in the order you were asked to.
Output: c, d, a, b

====

Here, molecules appear alongside pIC50 reported for Serine/threonine-protein kinase pim-1 (Homo sapiens) in the literature.
pIC50: −log10 of the molar value.
readout: pIC50

- molecule: "CC(C)(C)CNC(=O)CC1CNC(=O)c2cc(-c3cccc(C(F)(F)F)c3)cn21 (racemic)"
  pIC50: 6.28

I: NC(=O)c1cc(Cl)c2c(Cl)c(C#CC3CC3)n([C@H]3CCCNC3)c2n1
II: c1cncc(CNc2ccn3ncc(-c4ccc5ccccc5c4)c3n2)c1
III: CN(C)CCNc1cncc(-c2ccc3[nH]cc(-c4cccc(C(F)(F)F)c4)c3c2)n1
Task: Form: Sort by [pIC50] Order [ ascending ] Sort the labels as requested; that list is your answer.
Output: II, III, I
(II: 7.06, III: 7.46, I: 9.15)
